Data origin, for the record: patent US8487103B2

I'd be grateful if you could share measured melting point for these entries.

Provide melting point value for the following compound: COc1c(C(C)(C)C)cc(-n2ccc(=O)[nH]c2=O)c2ncc(-c3ccc(NS(C)(=O)=O)cc3)cc12
277 to 281 °C

Provide melting point value for the following compound: COc1c(C(C)(C)C)cc(-c2ccc(CO)[nH]c2=O)c2ncc(-c3ccc(NS(C)(=O)=O)cc3)cc12
293 to 295 °C

Provide melting point value for the following compound: CC(C)(C)c1cc(-c2ccc[nH]c2=O)c2ncc(-c3ccc(NS(C)(=O)=O)cc3)nc2c1
260 to 263 °C

Provide melting point value for the following compound: CC(C)(C)c1cc(-c2ccc[nH]c2=O)c2ncc(N3CCC(NS(C)(=O)=O)CC3)nc2c1
275 to 280 °C

Provide melting point value for the following compound: COc1c(C(C)(C)C)cc(-c2ccc[nH]c2=O)c2ncc(N3CC(CNS(C)(=O)=O)C3)cc12
177 to 180 °C
